TARGET_OR_SYSTEM: UniProt Q14524
EXPERIMENT_DESCRIPTION: Late INa screening assay (automated whole cell patch clamp, PatchXpress)
Type: cell-based
EXPERIMENTAL_CONDITIONS: compound at 1 μM; HEK293 cells expressing hNav1.5; late INa generated with 10 μM Tefluthrin (or 50 nM ATX II); read-out: LateINa_1 uM (percent block of late INa)
RECORDED_METRIC: inhibition at 1 µM

MOLECULE	RECORDED_METRIC	VALUE_REPORTED
FC(F)(F)c1nnc2ccc(-c3ccc(-c4ccccc4)cc3)cn12 [BHN-57]	inhibition at 1 µM	45.8%
Fc1ccc(Oc2ccc(-c3ccc4nnc(C(F)(F)F)n4c3)cc2)cc1 [BHN-64]	inhibition at 1 µM	38.2%
FC(F)(F)c1ncc(-c2ccc3nnc(C(F)(F)F)n3c2)cn1 [BHN-122]	inhibition at 1 µM	31.8%
FC(F)(F)c1nnc2ccc(-c3ccc(Oc4ccc(Cl)cc4)cc3)nn12 [BHN-236]	inhibition at 1 µM	40%
FC(F)(F)COc1ccc(-c2ccc3nnc(C(F)(F)F)n3c2)nn1 [BHN-187]	inhibition at 1 µM	15.2%
CC(O)C(F)(F)c1nnc2ccc(-c3ccc(OC(F)(F)F)cc3)cn12 (centres unmarked) [BHN-165]	inhibition at 1 µM	28.1%
FC(F)(F)COc1ccc(-c2ccc3nnc(C(F)(F)OCc4cc(-c5ccccc5)on4)n3c2)cn1 [BHN-324]	inhibition at 1 µM	46.3%
FC(F)(F)Oc1ccc(-c2ccc3nnc(COCc4ccccc4C(F)(F)F)n3c2)cc1 [BHN-239]	inhibition at 1 µM	65.1%

====

TARGET_OR_SYSTEM: wild-type human cardiac sodium channel, hNav1.5 (Homo sapiens)
Sequence (Q14524 whole entry): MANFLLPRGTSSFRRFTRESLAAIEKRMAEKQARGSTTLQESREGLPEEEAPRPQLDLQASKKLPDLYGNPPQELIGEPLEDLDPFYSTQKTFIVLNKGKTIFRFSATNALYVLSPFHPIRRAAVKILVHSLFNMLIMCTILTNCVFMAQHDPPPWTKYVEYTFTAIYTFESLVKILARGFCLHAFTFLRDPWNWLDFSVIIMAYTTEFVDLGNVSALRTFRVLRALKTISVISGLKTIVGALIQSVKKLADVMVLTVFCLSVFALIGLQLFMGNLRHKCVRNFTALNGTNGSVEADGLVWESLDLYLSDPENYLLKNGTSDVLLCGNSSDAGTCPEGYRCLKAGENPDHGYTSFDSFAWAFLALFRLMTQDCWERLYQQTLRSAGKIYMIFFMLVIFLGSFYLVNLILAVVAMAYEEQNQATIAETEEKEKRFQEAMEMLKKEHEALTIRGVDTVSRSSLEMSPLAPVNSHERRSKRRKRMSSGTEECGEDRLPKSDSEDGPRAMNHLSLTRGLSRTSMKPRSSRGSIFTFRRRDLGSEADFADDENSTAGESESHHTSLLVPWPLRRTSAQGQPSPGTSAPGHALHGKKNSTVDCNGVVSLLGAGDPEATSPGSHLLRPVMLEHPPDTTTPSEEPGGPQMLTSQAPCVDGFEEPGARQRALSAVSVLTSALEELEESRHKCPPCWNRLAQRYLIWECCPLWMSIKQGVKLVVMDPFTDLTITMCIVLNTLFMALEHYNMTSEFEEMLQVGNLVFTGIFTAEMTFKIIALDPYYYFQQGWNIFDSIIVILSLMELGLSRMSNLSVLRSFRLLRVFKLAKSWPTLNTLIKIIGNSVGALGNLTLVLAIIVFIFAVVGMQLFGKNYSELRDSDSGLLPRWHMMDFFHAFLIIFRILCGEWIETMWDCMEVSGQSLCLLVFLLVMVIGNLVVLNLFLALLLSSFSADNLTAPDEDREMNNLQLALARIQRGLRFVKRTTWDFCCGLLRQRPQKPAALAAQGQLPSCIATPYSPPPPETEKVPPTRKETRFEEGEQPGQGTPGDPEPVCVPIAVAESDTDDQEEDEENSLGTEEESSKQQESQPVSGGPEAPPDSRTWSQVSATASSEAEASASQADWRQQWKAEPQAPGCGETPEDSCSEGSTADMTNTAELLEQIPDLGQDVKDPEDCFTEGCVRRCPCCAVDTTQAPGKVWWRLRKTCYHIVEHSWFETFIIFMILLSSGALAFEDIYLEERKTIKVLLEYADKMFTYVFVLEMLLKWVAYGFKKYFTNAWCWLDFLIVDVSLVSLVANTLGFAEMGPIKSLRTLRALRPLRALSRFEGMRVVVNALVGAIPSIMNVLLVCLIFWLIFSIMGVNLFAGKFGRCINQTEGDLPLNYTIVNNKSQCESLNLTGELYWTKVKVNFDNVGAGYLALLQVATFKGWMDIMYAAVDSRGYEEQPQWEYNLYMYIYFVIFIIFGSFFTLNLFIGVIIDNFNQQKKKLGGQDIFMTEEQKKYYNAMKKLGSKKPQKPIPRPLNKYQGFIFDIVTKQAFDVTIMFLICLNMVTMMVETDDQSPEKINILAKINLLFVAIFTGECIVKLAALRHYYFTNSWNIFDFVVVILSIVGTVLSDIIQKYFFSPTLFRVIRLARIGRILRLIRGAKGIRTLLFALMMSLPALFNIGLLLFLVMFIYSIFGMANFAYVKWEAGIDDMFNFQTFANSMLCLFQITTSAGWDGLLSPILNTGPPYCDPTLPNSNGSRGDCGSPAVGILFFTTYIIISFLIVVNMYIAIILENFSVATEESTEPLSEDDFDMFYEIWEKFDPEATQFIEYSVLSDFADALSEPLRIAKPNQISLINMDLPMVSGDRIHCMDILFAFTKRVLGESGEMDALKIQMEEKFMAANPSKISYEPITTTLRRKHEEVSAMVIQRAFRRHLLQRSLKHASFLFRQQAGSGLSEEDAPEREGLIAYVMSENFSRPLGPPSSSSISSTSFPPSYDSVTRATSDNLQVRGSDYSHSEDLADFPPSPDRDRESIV
EXPERIMENT_DESCRIPTION: Late INa screening assay (automated whole cell patch clamp, PatchXpress)
Type: cell-based
EXPERIMENTAL_CONDITIONS: compound at 1 μM; HEK293 cells expressing hNav1.5; late INa generated with 10 μM Tefluthrin (or 50 nM ATX II); read-out: LateINa_1 uM (percent block of late INa)

SMI	TARGET_OR_SYSTEM	inhibition at 1 µM / %
FC(F)(F)Oc1ccc(-c2ccc3nnc(C(F)(F)OCc4ccccc4-c4cccnc4)n3c2)cc1	wild-type human cardiac sodium channel, hNav1.5 (Homo sapiens)	54.2
N#Cc1cc(Cl)ccc1Nc1ccc(-c2ccc3nnc(C(F)(F)F)n3c2)cc1	wild-type human cardiac sodium channel, hNav1.5 (Homo sapiens)	16.2
FC(F)(F)Oc1ccc(-c2ccc3nnc(C(F)(F)F)n3c2)cc1C(F)(F)F	wild-type human cardiac sodium channel, hNav1.5 (Homo sapiens)	56.9
COCC(F)(F)c1nnc2ccc(-c3ccc(Oc4ccccc4)cc3)cn12	wild-type human cardiac sodium channel, hNav1.5 (Homo sapiens)	45
Fc1ccc(COCc2nnc3ccc(-c4ccc(OC(F)(F)F)cc4)cn23)c(F)c1	wild-type human cardiac sodium channel, hNav1.5 (Homo sapiens)	83.4
FC(F)(F)c1nnc2ccc(-c3ccc(Nc4ccccc4)cc3)cn12	wild-type human cardiac sodium channel, hNav1.5 (Homo sapiens)	37.4
FC(F)(F)Oc1ccc(-c2ccc3nnc(C(F)(F)OCc4ccnc5ccccc45)n3c2)cc1	wild-type human cardiac sodium channel, hNav1.5 (Homo sapiens)	59.6
FC(F)c1nnc2ccc(-c3ccc(OCC(F)(F)F)nc3)nn12	wild-type human cardiac sodium channel, hNav1.5 (Homo sapiens)	44.7
